// provenance: paper PMC2898367

Target: T1, DsRED-tagged Occludin (UniProt Q16625 1-522)
T1 sequence (looked up): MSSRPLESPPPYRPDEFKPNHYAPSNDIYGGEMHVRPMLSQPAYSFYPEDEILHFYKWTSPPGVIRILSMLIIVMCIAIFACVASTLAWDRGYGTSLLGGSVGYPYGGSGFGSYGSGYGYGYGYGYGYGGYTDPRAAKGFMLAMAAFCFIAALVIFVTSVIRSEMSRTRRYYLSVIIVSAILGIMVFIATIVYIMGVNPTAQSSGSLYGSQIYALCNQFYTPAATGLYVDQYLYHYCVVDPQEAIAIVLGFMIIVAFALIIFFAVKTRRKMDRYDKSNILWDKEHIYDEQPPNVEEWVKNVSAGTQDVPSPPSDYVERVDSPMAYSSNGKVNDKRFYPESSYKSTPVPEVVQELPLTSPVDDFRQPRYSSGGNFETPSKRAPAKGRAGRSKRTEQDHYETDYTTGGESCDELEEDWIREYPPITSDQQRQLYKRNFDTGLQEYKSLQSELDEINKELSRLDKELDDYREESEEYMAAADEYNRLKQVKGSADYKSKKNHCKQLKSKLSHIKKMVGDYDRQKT
Experiment: FRET or BRET
Each entry below lists one item and its recorded %FRET value.
Answer format: number, then unit.

Solved entries:
{"columns": ["BINDER", "%FRET"],
 "data": [
  ["AcGFP-tagged Claudin-11 (natural protein, UniProt O75508 1-207, looked up) MVATCLQVVGFVTSFVGWIGVIVTTSTNDWVVTCGYTIPTCRKLDELGSKGLWADCVMATGLYHCKPLVDILILPGYVQACRALMIAASVLGLPAILLLLTVLPCIRMGQEPGVAKYRRAQLAGVLLILLALCALVATIWFPVCAHRETTIVSFGYSLYAGWIGAVLCLVGGCVILCCAGDAQAFGENRFYYTAGSSSPTHAKSAHV", "23%"],
  ["AcGFP-tagged Claudin-17 (natural protein, UniProt P56750 1-224, looked up) MAFYPLQIAGLVLGFLGMVGTLATTLLPQWRVSAFVGSNIIVFERLWEGLWMNCIRQARVRLQCKFYSSLLALPPALETARALMCVAVALSLIALLIGICGMKQVQCTGSNERAKAYLLGTSGVLFILTGIFVLIPVSWTANIIIRDFYNPAIHIGQKRELGAALFLGWASAAVLFIGGGLLCGFCCCNRKKQGYRYPVPGYRVPHTDKRRNTTMLSKTSTSYV", "40%"]
]}

# input for lookup
Q: # %FRET lookup, item AcGFP-tagged Claudin-9 (natural protein, UniProt O95484 1-217, looked up) MASTGLELLGMTLAVLGWLGTLVSCALPLWKVTAFIGNSIVVAQVVWEGLWMSCVVQSTGQMQCKVYDSLLALPQDLQAARALCVIALLLALLGLLVAITGAQCTTCVEDEGAKARIVLTAGVILLLAGILVLIPVCWTAHAIIQDFYNPLVAEALKRELGASLYLGWAAAALLMLGGGLLCCTCPPPQVERPRGPRLGYSIPSRSGASGLDKRDYV
Ans: 18%
